Sourced from patent US8815947B2

molecular target: FABP5 (Homo sapiens); assay: Fluorescence-based binding assay (ANS titration and competition); parameters: GST; made in house; host or cells: E. coli BL21
Sequence (Q01469 whole entry, species assumed): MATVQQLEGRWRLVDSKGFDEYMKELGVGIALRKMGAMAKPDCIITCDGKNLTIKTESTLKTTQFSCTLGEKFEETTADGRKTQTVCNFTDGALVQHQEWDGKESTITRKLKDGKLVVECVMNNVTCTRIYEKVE
readout type: pKd
Answers are plain numbers, as −log10 of the molar value.

Measured pKd, Cc1cc(SCc2sc(-c3ccc(C(F)(F)F)c(F)c3)nc2C)ccc1OCC(=O)O : 7.37
